Ref: the OligoGym collection

biological target: APOL1; details: ASO, A431, 0.0625 µM
After the bases stand the sugars from the 5' end (letter, count) and the backbone: PS all phosphorothioate, else s phosphorothioate and o phosphodiester by linkage. Methylation of C is not given here. e = 2'-O-(2-methoxyethyl) (MOE); k = constrained ethyl (cEt); d = 2'-deoxy (DNA)
assay_readout: target mRNA inhibition (%)
Answer format: numeric, % implied, no suffix.

// known answers, use as guide
TATTTCTTGATGTGGT (sugars kkddddkekekddddd, PS) :: 77
ATTCTATTGGGCCTCA (sugars k4 d9 k3, PS) :: 28

Here is the next item to consider.
*Q* Give target mRNA inhibition for AGTTTTGTAAGTGCAA (sugars kkddddkdkdkddddd, PS)
*A* 34

----------
biological target: MALAT1; settings: ASO, A431, 0.005 µM
After the bases stand the sugars from the 5' end (letter, count) and the backbone: PS all phosphorothioate, else s phosphorothioate and o phosphodiester by linkage. Methylation of C is not given here. k = constrained ethyl (cEt); d = 2'-deoxy (DNA)
Listed below: target mRNA inhibition values for each entry.
Answer format: numeric, % implied, no suffix.

// known answers, use as guide
CTCACGGATTTTTACC (sugars k3 d10 k3, PS) :: 7
AGATTCACTGAATCCA (sugars k3 d10 k3, PS) :: 6
GAAACTCCCCCATTAT (sugars k3 d10 k3, PS) :: 6

Here is the next item to consider.
*Q* Give target mRNA inhibition for ATTACACCAGTCCTTT (sugars k3 d10 k3, PS)
*A* 40

----------
target: APOL1; settings: ASO, A431, 1 µM
After the bases stand the sugars from the 5' end (letter, count) and the backbone: PS all phosphorothioate, else s phosphorothioate and o phosphodiester by linkage. Methylation of C is not given here. e = 2'-O-(2-methoxyethyl) (MOE); k = constrained ethyl (cEt); d = 2'-deoxy (DNA)
assay_readout: target mRNA inhibition (%)
Answer format: numeric, % implied, no suffix.

TGTTATATTTGATCCT (sugars kkdddddkekeddddd, PS) :: 92

Here is the next item to consider.
*Q* Give target mRNA inhibition for ATTCTCATGGTACAGG (sugars k3 d4 k3 e1 d5, PS)
*A* 88

----------
target: KRAS; settings: ASO, A431, 2 µM
After the bases stand the sugars from the 5' end (letter, count) and the backbone: PS all phosphorothioate, else s phosphorothioate and o phosphodiester by linkage. Methylation of C is not given here. e = 2'-O-(2-methoxyethyl) (MOE); k = constrained ethyl (cEt); d = 2'-deoxy (DNA)
Label rule, in plain words: target mRNA inhibition of 30% and up is met, under 30% is not met.

// known answers, use as guide
CGAGAATGGATATTCA (sugars k3 d10 k3, PS) :: not met
TGTTTATGCAATGTTA (sugars kkkddddddddkekek, PS) :: met
AGGAGTCTTTATAGTA (sugars k3 d9 k3 e1, PS) :: not met
TCCATTTATGTGACTA (sugars kkdddddddddkekek, PS) :: met
GTATTAACACAGAAGT (sugars k3 d10 k3, PS) :: not met

Continue with the sequence presented below.
*Q* Reported target mRNA inhibition at or above 30%? CCATTCAAAGTTCACA (sugars kkddddddddddkeke, PS)
*A* met

----------
molecular target: DGAT2; details: ASO, HepG2, 0.12 µM
After the bases stand the sugars from the 5' end (letter, count) and the backbone: PS all phosphorothioate, else s phosphorothioate and o phosphodiester by linkage. Methylation of C is not given here. e = 2'-O-(2-methoxyethyl) (MOE); d = 2'-deoxy (DNA)
Label rule, in plain words: target mRNA inhibition of 70% and up is 1, under 70% is 0.

*Q* Reported target mRNA inhibition at or above 70%? GGGCGAAACCAATGTATTTC (sugars e5 d10 e5, PS)
*A* 0

*Q* Reported target mRNA inhibition at or above 70%? CCAGGGCCTCCATGTACATG (sugars e3 d14 e3, PS)
*A* 1

*Q* Reported target mRNA inhibition at or above 70%? CTCTCCAACTCCTCCCCTTG (sugars e5 d10 e5, PS)
*A* 0

*Q* Reported target mRNA inhibition at or above 70%? CCAGGCCAAGGCTGAGTCTG (sugars e5 d10 e5, PS)
*A* 0

*Q* Reported target mRNA inhibition at or above 70%? TAAATAACCCACAGACACCC (sugars e5 d10 e5, PS)
*A* 0
